test system: Pseudomonas aeruginosa (1771 Wild-type strain); assay: Activity in vitro, method of dilutions in liquid medium (M.I.C.); type: cell-based; settings: incubation 24 hours at 37° C., growth inhibition by transillumination, read-out: MIC (μg/mL) 24 h (P, aerug, 1771)
Measured Metric: MIC (µg/mL)

Briefly, MIC measured for N=C(N)NC[C@@H]1c2[nH]ncc2[C@H]2CN1C(=O)N2OS(=O)(=O)O (relative stereo) : 1

P = CN(C)CCNC(=O)n1cc2c(n1)[C@@H](CN)N1C[C@H]2N(OS(=O)(=O)O)C1=O (relative stereo)
Q = CCNC(=O)n1cc2c(n1)[C@@H](CNC(=N)N)N1C[C@H]2N(OS(=O)(=O)O)C1=O (relative stereo)
R = N=C(N)n1cc2c(n1)[C@@H](CN)N1C[C@H]2N(OS(=O)(=O)O)C1=O (relative stereo)
Order the records so the highest MIC appears first and the lowest last. Please express your ranking as an ordered list of the labels.
Q, P, R
(Q: 16 µg/mL, P: 1 µg/mL, R: 0.5 µg/mL)

====

system: Pseudomonas aeruginosa (1771 Wild-type strain); assay: Activity in vitro, method of dilutions in liquid medium (M.I.C.); format: cell-based; conditions: incubation 24 hours at 37° C., growth inhibition by transillumination, read-out: MIC (μg/mL) 24 h (P, aerug, 1771)
Measured Metric: MIC (µg/mL)

Quick note, MIC for NCCCNC(=O)n1cc2c(n1)[C@@H](CN)N1C[C@H]2N(OS(=O)(=O)O)C1=O (relative stereo) [Ex5] landed at 0.5

Reported MIC for NC[C@@H]1c2nn(C(=O)NCC(N)=O)cc2[C@H]2CN1C(=O)N2OS(=O)(=O)O (relative stereo) [Ex7] was 1

According to the records, this compound NC[C@@H]1c2nn(C(=O)C3CCNCC3)cc2[C@H]2CN1C(=O)N2OS(=O)(=O)O (relative stereo) [Ex11] displays MIC of 0.25

I = NC[C@@H]1c2nn(C(=O)N3CCCC3)cc2[C@H]2CN1C(=O)N2OS(=O)(=O)O (relative stereo) [Ex4]
II = CC(N)CCNC(=O)n1cc2c(n1)[C@@H](CN)N1C[C@H]2N(OS(=O)(=O)O)C1=O (relative stereo) [Ex6]
III = N=C(N)NC[C@@H]1c2nn(C(N)=O)cc2[C@H]2CN1C(=O)N2OS(=O)(=O)O (relative stereo) [Ex17]
IV = NC[C@@H]1c2nn(CCC(N)C(=O)O)cc2[C@H]2CN1C(=O)N2OS(=O)(=O)O (relative stereo) [Ex12]
Put the entries in order of MIC, starting with the largest number. Reply format: the labels, ordered as requested.
I, II, III, IV
(I: 8 µg/mL, II: 4 µg/mL, III: 1 µg/mL, IV: 0.5 µg/mL)
